experiment: Bidirectional transport of puerarin across RNEC monolayers; assay type: in vitro ADME; settings: Sprague Dawley, rat
property_measured: Papp A→B at 180 min

Entry O=c1c(-c2ccc(O)cc2)coc2c([C@@H]3O[C@H](CO)[C@@H](O)[C@H](O)[C@H]3O)c(O)ccc12 [puerarin, Puerarin] — recorded Papp A→B at 180 min = 1.27 to 1.31 ×10⁻⁶ cm/s

* * *

assay: Bidirectional transport of puerarin across RNEC monolayers; format: in vitro ADME; conditions: Sprague Dawley, rat
property_measured: efflux ratio at 180 min

Entry `O=c1c(-c2ccc(O)cc2)coc2c([C@@H]3O[C@H](CO)[C@@H](O)[C@H](O)[C@H]3O)c(O)ccc12` — recorded efflux ratio at 180 min = < 2
